- target.desc: Fatty-acid amide hydrolase 1 (Homo sapiens)
- Sequence (O00519 whole entry): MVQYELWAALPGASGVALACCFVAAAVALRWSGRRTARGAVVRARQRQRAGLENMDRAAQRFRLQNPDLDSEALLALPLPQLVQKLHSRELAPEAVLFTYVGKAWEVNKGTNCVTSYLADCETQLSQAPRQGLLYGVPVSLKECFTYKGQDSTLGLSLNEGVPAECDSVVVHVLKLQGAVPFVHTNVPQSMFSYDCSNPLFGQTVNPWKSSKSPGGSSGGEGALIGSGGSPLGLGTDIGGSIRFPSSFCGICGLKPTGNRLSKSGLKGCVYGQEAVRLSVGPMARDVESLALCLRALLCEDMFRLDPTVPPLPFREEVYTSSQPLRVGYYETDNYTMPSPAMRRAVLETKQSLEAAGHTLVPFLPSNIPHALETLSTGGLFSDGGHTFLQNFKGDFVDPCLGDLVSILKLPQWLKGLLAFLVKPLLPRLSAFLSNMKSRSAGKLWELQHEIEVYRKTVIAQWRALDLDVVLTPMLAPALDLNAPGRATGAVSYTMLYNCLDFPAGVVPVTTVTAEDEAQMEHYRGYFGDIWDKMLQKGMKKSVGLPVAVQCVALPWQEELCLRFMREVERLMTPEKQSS
property.name: IC50 (µM)
Your answer should be a plain number; it is taken to be in µM.

Param item = `CCC/C=C/COCC(=O)Nc1cccc(-c2nc3cccnc3[nH]2)c1` ; retrieve measured IC50. 73

====

- target.desc: Orexin receptor type 2 (Homo sapiens, UniProt O43614)
- Sequence (O43614 whole entry): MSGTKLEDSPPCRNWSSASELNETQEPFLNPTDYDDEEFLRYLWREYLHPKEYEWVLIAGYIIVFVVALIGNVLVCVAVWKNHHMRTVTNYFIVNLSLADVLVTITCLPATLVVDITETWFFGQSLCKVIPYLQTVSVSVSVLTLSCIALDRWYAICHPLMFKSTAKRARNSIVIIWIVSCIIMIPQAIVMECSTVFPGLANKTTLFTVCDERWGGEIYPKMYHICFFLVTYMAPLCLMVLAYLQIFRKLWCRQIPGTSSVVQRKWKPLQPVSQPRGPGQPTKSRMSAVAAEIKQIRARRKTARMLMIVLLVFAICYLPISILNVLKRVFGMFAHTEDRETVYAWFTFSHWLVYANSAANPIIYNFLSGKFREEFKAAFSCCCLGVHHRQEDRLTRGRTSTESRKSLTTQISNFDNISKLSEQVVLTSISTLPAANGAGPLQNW
- assay.info: Antagonist activity at human OX2R expressed in CHOK1 cells by Syto62 probe based fluorescence assay
property.name: IC50

Quick check: IC50 of O=C(c1nccc2[nH]cnc12)N1CCC(F)(F)C(Oc2ccc3ccccc3n2)C1 (stereo unspecified) ? > 5.87 µM

====

Give pIC50 for every item shown.
- target.desc: Glutamate [NMDA] receptor
- assay.info: Modulator activity at NMDA receptor (unknown origin)
Answer as the number alone; pIC50 is minus log10 of concentration in mol/L.

pIC50 lookup needed for Cc1ccc2c(c1)C1CC(C)CCC1N2c1c(C(F)(F)F)nc2c(C)cccn12 (configuration not stated) , thanks. 4.40

// lookup pIC50 for Cc1ccc2c(c1)C1CN(C)CCC1N2CCC(=O)N(C)c1c(C(F)(F)F)nc2ccc(C)cn12 (configuration not stated) 4.48

====

Below are pKi values recorded for Translocator protein (Homo sapiens).
In textbook form, pKi equals minus log to base ten of the concentration in mol/L.

So what's the measured pKi for this one? `CCCN(CCC)C(=O)Cc1c(-c2ccc(Cl)cc2)nc2c(NC(=O)CCC(=O)OCC)cccn12` 9.07

Recorded pKi for `CCCN(CCC)C(=O)Cc1c(-c2ccc(Cl)cc2)nc2c(NC(=O)CN(Cc3ccccn3)Cc3ccccn3)cccn12` , please? 6.53

For the compound `CCCN(CCC)C(=O)Cc1c(-c2ccc(Cl)cc2)nc2c(N)cccn12` , what pKi is on record? 8.80

What pKi value was documented for this compound, `CCCN(CCC)C(=O)Cc1c(-c2ccc([N+](=O)[O-])cc2)nc2c(Cl)cc(Cl)cn12` ? 9.82

So what's the measured pKi for this one? `CCCCN(C)C(=O)Cc1c(-c2ccc(OC)cc2)nc2c(Cl)cc(Cl)cn12` 9.05

Which value of pKi has been reported for `CCCN(CCC)C(=O)Cc1c(-c2ccc(Cl)cc2)nc2c(Cl)cc(Cl)cn12` in the records? 9.39

# query: pKi of entry `CCCN(CCC)C(=O)Cc1c(-c2ccc(OC)cc2)nc2c(Cl)cc(Cl)cn12` 9.27
